Exercise: for every item that follows, state its recorded z-score.
Assay: basal RPMI8226 viability, no added stimulus, profiling panel, cell-based, calcein-AM fluorescence, 48 h, PK04 Diversity Set (AID 1166);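 further: cells grown under basal conditions without added stimulus; test concentration not given here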
Conditions: RPMI8226 myeloma viability, higher = more signal
Just the number, please.

query: Could you share which z-score value was measured for CC(=O)OC[C@H]1O[C@H](CC=NO[C@H](C)c2cn([C@H](CO)Cc3ccccc3)nn2)C=C[C@@H]1OC(C)=O ?
result: -1.94

query: Could you share which z-score value was measured for O=C1CCCC=C1C(CCc1ccccc1)OC(=O)c1ccc(Br)cc1 (centres undefined) ?
result: -2.69

query: Could you share which z-score value was measured for C#CCCCON=C1C[C@@H](O)[C@@H](O)[C@@H]2[C@@H]3C(=O)N(c4ccc(F)cc4F)C(=O)[C@@H]3CC[C@@H]12 ?
result: -0.865

query: Could you share which z-score value was measured for CC(=O)OC[C@H]1O[C@@H](ON=C(C)CCN2CCCc3nc(C)c(C)cc32)[C@H](OC(C)=O)[C@@H](OC(C)=O)[C@@H]1OC(C)=O ?
result: -2.45

###

Exercise: for every item that follows, state its recorded composite z-score.
System: Sonic hedgehog protein (Shh)
Experiment: small-molecule binders of Shh protein, primary screen, biochemical, small-molecule microarray, 635/667 nm fluorescence (AID 1151);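 further: Shh protein binding to compounds spotted on small-molecule microarray slides; score combines spot fluorescence intensity with signal-to-noise across triplicate slides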
Conditions: small-molecule microarray binding, 635 nm fluorescence; higher = more signal
Just the number, please.

query: Could you share which composite z-score value was measured for CCN1C(=O)[C@H]2[C@H]3[C@H](O)[C@H](O)CC(=O)[C@@H]3CC[C@H]2C1=O ?
result: 0.694

query: Could you share which composite z-score value was measured for COC(=O)C1=C(C)N(Cc2ccccc2)[C@]23O[C@](C(=O)OC)(C(=O)N2[C@@H]1c1ccccc1)C(C(=O)OC)=C3C(=O)OC ?
result: 0.657

query: Could you share which composite z-score value was measured for CC(=O)Nc1ccc([C@@H]2N[C@H](C(=O)O)CC[C@H]2C)cc1 ?
result: 0.2

query: Could you share which composite z-score value was measured for CCOC(=O)[C@H](CC(C)C)NC(=O)CCC1CC(OC(=O)NCCc2ccc(F)cc2)CC2(CCCC(COC(=O)NCC3CCCCC3)O2)O1 (some centres not stated) ?
result: 0.648

query: Could you share which composite z-score value was measured for COc1ccc(C#C[C@@H]2C=C[C@H](OC(C)=O)[C@@H](COC(C)=O)O2)cc1 ?
result: 0.882

query: Could you share which composite z-score value was measured for C#CCCCON=C1C[C@@H](O)[C@@H](O)[C@@H]2[C@@H]3C(=O)N(C(C)(C)C)C(=O)[C@@H]3CC[C@H]12 ?
result: -0.914

query: Could you share which composite z-score value was measured for CO[C@H]1COC(=O)CC=C[C@H](C)COC(=O)[C@@H](C)NC(=O)CC=C[C@@H]1C ?
result: 2.08

query: Could you share which composite z-score value was measured for CCOC(=O)[C@H](Cc1ccccc1)NC(=O)CCC1CC(OC(=O)NCCc2ccc(F)cc2)CC2(CCCC(COC(=O)NCCc3ccc(Cl)cc3)O2)O1 (some centres not stated) ?
result: 0.726

query: Could you share which composite z-score value was measured for COc1cccc([C@H]2Oc3ccc(OC)cc3C(=NOC[C@@H](O)[C@H]3O[C@@H]4OC(C)(C)O[C@@H]4[C@H]3O)[C@@H]2O)c1 ?
result: 0.303

query: Could you share which composite z-score value was measured for C=CC[C@@H]1C=C[C@H](ON=C[C@@H](C)[C@H](OCc2ccccc2)C(C)C)[C@@H](CO)O1 ?
result: -0.119

query: Could you share which composite z-score value was measured for C[C@@H](ON=C1[C@H]2CCn3c(=O)n(-c4ccccc4)c(=O)n3[C@H]2[C@H](O)[C@@H]2O[C@H]12)c1cn([C@@H]2COC[C@H]2O)nn1 ?
result: 0.438

query: Could you share which composite z-score value was measured for COC(=O)NCC=Cc1nc(CCCO)co1 ?
result: 0.883

Just for reference, PubChem BioAssay is where these values come from.
